- ASSAY_REMARKS: electronic properties, UV/Vis spectrophotometry of methanolic solutions
- Type: physicochemical
- CONDITIONS_USED: methanolic solution c = 8.0 × 10^−5 M, λ3 = 278–280 nm
REPORTED_METRIC: log ε3
Number only, please.

In the examples that follow, each entry is paired with its recorded log ε3.
[[record]]
molecule = "CCCCCCOc1cccc(NC(=O)OC(CN(CCC)CCC)CN2CCCC2)c1 (stereo not shown) [1g]"
meas_value = 3.48

[[record]]
molecule = "CCCCOc1cccc(NC(=O)OC(CN(CCC)CCC)CN2CCCCCC2)c1 (stereo not shown) [1m]"
meas_value = 3.44

[[record]]
molecule = "CCCCCOc1ccccc1NC(=O)OC(CN(CCC)CCC)CN1CCCC1 (stereo not shown) [1b]"
meas_value = 3.51

[[record]]
molecule = "CCCCOc1ccccc1NC(=O)OC(CN(CCC)CCC)CN1CCCCCC1 (stereo not shown) [1i]"
meas_value = 3.57

[[record]]
molecule = "CCCCCOc1cccc(NC(=O)OC(CN(CCC)CCC)CN2CCCCCC2)c1.Cl.Cl (stereo not shown) [1n]"
meas_value = 3.52


Now, please, on to the next molecule.
Name the recorded log ε3 of the item CCCCCCOc1ccccc1NC(=O)OC(CN(CCC)CCC)CN1CCCCCC1 (stereo not shown) [1k] in your answer.
3.57
